ASSAY EXPLANATION: method code SF-RC, from Lázníček, M., Waisser, K., Květina, J., Beňo, P., & Tichý, M. (1985). QSAR methods in pharmacokinetic analysis. QSAR in Toxicology and Xenobiochemistry, 249-256.
EXPERIMENTAL CONTEXT: pH 1.0
PARAMETER MEASURED: logD
Write the value as a bare number.

Tell me the measured logD of `O=C(O)CCc1ccccc1I` , please. 2.47

* * *

PARAMETER MEASURED: logP
Answer field: number only, no words.

# lookup: logP of `O=C(O)c1ccc([N+](=O)[O-])cc1` 1.9

* * *

ASSAY EXPLANATION: method code SF-HPLC, from DOI: 10.1023/a:1013643013244, PMID: 11837695
EXPERIMENTAL CONTEXT: pH 6.4
Listing of entries alongside the reported logD.
Respond numerically, and do not add a unit to the figure.

State the recorded logD for this entry: CCCCCN1C(=O)CCC(N2C(=O)c3ccccc3C2=O)C1=O (configuration not stated) 3.01

Please report the recorded logD for CN1C(=O)CCC(N2C(=O)c3ccccc3C2=O)C1=O (configuration not stated) . 1.15

* * *

PARAMETER MEASURED: logP
The response must contain the number and no unit.

Would you kindly share the measured logP for `CNC(=O)OCc1nc(SC)n(C)c1COC(=O)NC` ? 0.74

* * *

ASSAY EXPLANATION: method code SF-HPLC, from DOI: 10.1016/0378-5173(85)90011-0
PARAMETER MEASURED: logP
Write no unit; give the number alone.

Name the reported logP value associated with the molecule `CCCC(=O)n1ncc2c(=O)[nH]cnc21` 0.85

* * *

Reported logP values follow for various compounds
Number only, no unit.

COMPOUND	logP
O=[N+]([O-])C1NC=CN1C1OC(CI)C(O)C1O (configuration not stated)	0.7

Which logP is listed for O=[N+]([O-])c1nccn1C1OCC(I)CC1O (configuration not stated) ? -0.05

* * *

ASSAY EXPLANATION: method code …, from Buur, A., & Bundgaard, H. (1984). Prodrugs of 5-fluorouracil. II. Hydrolysis kinetics, bioactivation, solubility and lipophilicity of N-alkoxycarbonyl derivatives of 5-fluorouracil. Arch. Pharm. …
EXPERIMENTAL CONTEXT: pH 4.0
PARAMETER MEASURED: logD

Which logD reading was recorded for the compound `CCOC(=O)n1c(=O)[nH]cc(F)c1=O` ? 0.11

* * *

ASSAY EXPLANATION: method code SF-GLC, from DOI: 10.1007/bf00212402, PMID: 7663085
Measured logP accompanies every entry in the list below.
Just the number.

COMPOUND	PARAMETER MEASURED	ENDPOINT VALUE
ClC1=C(Cl)C2(Cl)C3C(Cl)C(Cl)(Cl)CC3C1(Cl)C2(Cl)Cl (configuration not stated)	logP	6.06

Please look at the following compound next.
Given ClC1=C(Cl)C2(Cl)C3CC=CC3C1(Cl)C2(Cl)Cl (configuration not stated) , state its recorded logP. 5.57

* * *

ASSAY EXPLANATION: method code SF-AS, from DOI: 10.1016/0039-9140(93)80165-n, PMID: 18965747
EXPERIMENTAL CONTEXT: pH 2.0
PARAMETER MEASURED: logD
Response field accepts a number only; no unit should be typed.

Which logD reading was recorded for the compound `CC(C)(C)C(=O)O` ? 1.42

* * *

ASSAY EXPLANATION: method code SF-AS, from DOI: 10.1081/jlc-100100410
EXPERIMENTAL CONTEXT: pH 4.0
PARAMETER MEASURED: logD
# answer = number (no unit)

Would you mind telling me what logD value was observed for `Nc1ccc(S(=O)(=O)Nc2ccc(Cl)nn2)cc1` ? 0.86

* * *

logP values by entry
Enter the number alone.

STRUCTURE STRING	ENDPOINT VALUE
COC(=O)c1ccccc1C(=O)OC	1.9

I have this compound here, `CCCCCCOC(=O)c1ccccc1C(=O)OCCCCCC` , and I need its recorded logP. 5.8

* * *

ASSAY EXPLANATION: method code SF-AS, from Holmes, L.; Lough, E. (1976). Effect of Intramolecular Hydrogen Bonding on Partition Coefficients [Technical Note]. Defence Research Establishment Suffield.
PARAMETER MEASURED: logP
Give your answer as a number; write no unit.

Known logP results, listed for orientation:
STRUCTURE STRING	logP
CC(=O)c1ccc(O)cc1	1.45
O=C(c1ccccc1)c1ccccc1O	3.52

Now look at this one.
Item under review: `COc1cccc(C=O)c1O` . Reported logP? 1.33

* * *

ASSAY EXPLANATION: method code SF-AS, from DOI: 10.1080/1071576031000148736, PMID: 14567446
PARAMETER MEASURED: logP
Respond numerically, and do not add a unit to the figure.

STRUCTURE STRING	ENDPOINT VALUE
O=C(O)c1ccccc1C1c2cc(Cl)c(O)cc2Oc2cc(O)c(Cl)cc21	2.62

Turning now to a further record.
Quick one: logP of `CC(=O)Oc1cc2c(cc1Cl)C(c1ccccc1C(=O)O)c1cc(Cl)c(OC(C)=O)cc1O2` ? 3.51

* * *

ASSAY EXPLANATION: method code SF, from DOI: 10.1016/j.ejmech.2012.08.015, PMID: 22960698
PARAMETER MEASURED: logP

MOLECULE	PARAMETER MEASURED	ENDPOINT VALUE
COc1ccc(C(=O)CC2OC(=O)c3ccccc32)cc1OC (configuration not stated)	logP	2.61

Which measured logP value corresponds to O=C(CC1OC(=O)c2ccccc21)c1ccccc1 (configuration not stated) ? 2.96

* * *

PARAMETER MEASURED: logP
Respond with the number and no other words.

Can you look up the measured logP of `O=C(CN1C(=O)c2ccccc2C1=O)N1CCN(Cc2ccc(I)cc2)CC1` for me? 3.6

* * *

Listing of entries alongside the reported logP.
ASSAY EXPLANATION: method code SF-AS, from DOI: 10.1016/j.arabjc.2011.11.013
Reply: number alone, nothing else.

Example cases with answers are listed next.
STRUCTURE STRING	logP
Nc1ccc(C(=O)OCC(=O)Nc2ccc(Cl)cc2C(=O)c2ccccc2)cc1	4.78
O=C(CNc1ccccc1)Nc1ccc(Cl)cc1C(=O)c1ccccc1	4.24

Let us move to another entry and its logP.
Name the recorded logP for `O=C(CNc1ccc(O)cc1)Nc1ccc(Cl)cc1C(=O)c1ccccc1` . 3.5

* * *

PARAMETER MEASURED: logP
Just the number, please, no unit after it.

Reported logP for `C[C@]12CCC(=O)C[C@@H]1CC[C@@H]1[C@@H]2[C@@H](F)C[C@]2(C)[C@@H](O)CC[C@@H]12` : what is it? 3.5

* * *

ASSAY EXPLANATION: method code SF, from DOI: 10.1016/0360-3016(89)90912-7, PMID: 2703384
EXPERIMENTAL CONTEXT: pH 7.4
PARAMETER MEASURED: logD
The answer should be a number; do not append a unit.

MOLECULE	PARAMETER MEASURED	ENDPOINT VALUE
O=[N+]([O-])c1nccn1CC(F)CO (stereo not drawn)	logD	-0.38
COCC(F)Cn1cnc([N+](=O)[O-])c1 (stereo not drawn)	logD	-0.04

Which logD value is on record for O=[N+]([O-])c1cn(CC(F)CO)cn1 (stereo not drawn) ? -0.8

* * *

Readings of logP for the listed molecules
Hey, just send me the number, nothing else.

STRUCTURE STRING	ENDPOINT VALUE
Cn1cnc2c1c(=O)[nH]c(=O)n2C	-0.82

Value lookup for logP; key = `CC(=O)CCCCn1c(=O)c2c(ncn2C)n(C)c1=O` 0.29

* * *

PARAMETER MEASURED: logP
Write no unit; give the number alone.

Consider the compound shown here: `Cc1ncc(COP(=O)(O)O)c(C=O)c1O` What is its recorded logP? 0.37

* * *

ASSAY EXPLANATION: from Tehrany, E.A.; Desobry, S. (2005). Comparison between the different calculation methods of partition coefficient of aroma compounds with a difference chemical classes in octanol/water system. …
PARAMETER MEASURED: logP
Just the number, please.

Which logP reading was recorded for the compound `CCCCCCCCCC(=O)O` ? 3.91

* * *

ASSAY EXPLANATION: method code SF-AS, from DOI: 10.1016/0223-5234(96)88239-0
EXPERIMENTAL CONTEXT: pH 2.0
PARAMETER MEASURED: logD
I'd appreciate a reply containing only the number, no unit.

STRUCTURE STRING	logD
COc1ccc(C(=O)c2ncc(C(=O)O)n2C)cc1	2.01

Now let's try a different one.
Which logD is reported for this compound? `Cc1ccc(C(=O)c2ncc(C(=O)O)n2C)cc1` 2.25

Source of measurements: the SangsterLogP compilation
